# tgt: PI3K delta (Homo sapiens)
# Construct: His (N); host or cells: SF9 cells (baculovirus)
# Sequence (O00329 whole entry): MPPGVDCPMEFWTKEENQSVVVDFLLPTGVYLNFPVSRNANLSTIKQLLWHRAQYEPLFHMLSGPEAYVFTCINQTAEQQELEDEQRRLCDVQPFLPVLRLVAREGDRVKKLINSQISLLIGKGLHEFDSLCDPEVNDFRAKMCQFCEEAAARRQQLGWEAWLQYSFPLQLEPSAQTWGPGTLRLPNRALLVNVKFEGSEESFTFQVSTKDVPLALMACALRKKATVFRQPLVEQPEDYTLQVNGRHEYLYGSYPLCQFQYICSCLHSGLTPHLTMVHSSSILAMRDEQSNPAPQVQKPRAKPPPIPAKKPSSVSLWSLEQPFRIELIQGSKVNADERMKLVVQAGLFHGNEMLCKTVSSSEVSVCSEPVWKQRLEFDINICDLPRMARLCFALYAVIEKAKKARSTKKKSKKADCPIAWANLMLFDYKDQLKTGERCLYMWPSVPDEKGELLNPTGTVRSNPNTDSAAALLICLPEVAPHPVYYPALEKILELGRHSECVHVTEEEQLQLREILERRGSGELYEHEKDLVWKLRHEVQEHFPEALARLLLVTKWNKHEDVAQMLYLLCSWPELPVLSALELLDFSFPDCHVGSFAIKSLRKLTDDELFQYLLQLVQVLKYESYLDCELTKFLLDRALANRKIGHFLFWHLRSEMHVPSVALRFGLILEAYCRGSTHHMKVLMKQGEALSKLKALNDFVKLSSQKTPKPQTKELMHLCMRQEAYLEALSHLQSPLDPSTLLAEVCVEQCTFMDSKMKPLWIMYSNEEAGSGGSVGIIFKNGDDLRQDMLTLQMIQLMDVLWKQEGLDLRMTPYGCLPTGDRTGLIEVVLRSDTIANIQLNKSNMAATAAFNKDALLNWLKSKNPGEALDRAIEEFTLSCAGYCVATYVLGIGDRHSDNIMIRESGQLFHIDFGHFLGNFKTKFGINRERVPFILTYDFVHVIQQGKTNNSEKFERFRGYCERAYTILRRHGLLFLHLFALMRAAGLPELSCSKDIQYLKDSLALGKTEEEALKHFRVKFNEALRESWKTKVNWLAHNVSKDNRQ
# Sequence (P27986 whole entry partner): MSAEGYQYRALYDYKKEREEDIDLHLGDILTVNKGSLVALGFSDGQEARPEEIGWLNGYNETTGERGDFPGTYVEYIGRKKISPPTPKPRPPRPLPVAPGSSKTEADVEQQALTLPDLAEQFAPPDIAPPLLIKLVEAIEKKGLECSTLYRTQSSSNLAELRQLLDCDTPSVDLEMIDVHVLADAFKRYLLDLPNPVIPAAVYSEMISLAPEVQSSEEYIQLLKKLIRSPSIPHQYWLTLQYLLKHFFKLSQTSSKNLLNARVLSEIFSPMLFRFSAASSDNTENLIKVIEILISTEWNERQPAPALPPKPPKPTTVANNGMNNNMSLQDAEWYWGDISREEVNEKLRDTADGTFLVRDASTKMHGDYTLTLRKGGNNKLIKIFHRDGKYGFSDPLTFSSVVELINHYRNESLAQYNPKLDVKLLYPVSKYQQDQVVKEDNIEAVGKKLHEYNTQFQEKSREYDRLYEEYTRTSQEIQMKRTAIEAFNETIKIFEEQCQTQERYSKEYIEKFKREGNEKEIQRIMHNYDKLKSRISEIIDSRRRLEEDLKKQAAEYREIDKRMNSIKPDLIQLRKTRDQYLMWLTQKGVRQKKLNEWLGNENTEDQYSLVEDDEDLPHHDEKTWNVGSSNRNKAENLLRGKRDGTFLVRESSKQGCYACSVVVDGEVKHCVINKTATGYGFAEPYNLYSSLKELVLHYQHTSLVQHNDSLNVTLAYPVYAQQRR
# test_summary: Human PI3K delta enzyme assay (HTRF)
# Type: biochemical
# assay_conditions: concentration not given; b1433 gives 1.0 μM for PI3K δ and γ; read-out: p110 delta Percent Inhibition

# molecule, inhibition at 1 µM, %
records = [
    ("OC(c1cc(Br)cs1)c1cc(-c2ccncc2)sc1-c1nnc[nH]1 (stereo not shown)", 74),
    ("NCc1c[nH]c(-c2sc(-c3ccncc3)nc2Cc2ccc(Cl)cc2)n1", 39),
    ("COc1cccc(C(O)c2cc(-c3ccncc3)sc2-c2nnc[nH]2)c1 (stereo not shown)", 27),
    ("c1ccc2cc(Cc3nc(N4CCOCC4)sc3-c3nnn[nH]3)ccc2c1", 110),
]
